Ref: the supplement of paper PMC5908809

# System: KAI3 (IL-2 2.5 ng/mL)
# experimentNotes: percent inhibition of viability; higher = more inhibition;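 also: normalised to DMSO-only wells as negative and benzethonium chloride as positive control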
# assaySetup: 72 h; 1000 nM
measuredAttribute: percent inhibition of viability

Worked cases, percent inhibition of viability given:
>>> assayresult("Nc1nc(F)nc2c1ncn2[C@@H]1O[C@H](CO)[C@@H](O)[C@@H]1O [Fludarabine] (max concentration tested 10000 nM)")
"10.9%"
>>> assayresult("CNC(=O)c1cccc(-c2ccc3c(N4CCOC[C@@H]4C)nc(N4CCOC[C@@H]4C)nc3n2)c1 [AZD2014] (max concentration tested 10000 nM)")
"65.3%"
>>> assayresult("C[C@@H](Oc1cc(-n2cnc3ccc(CN4CCN(C)CC4)cc32)sc1C(N)=O)c1ccccc1C(F)(F)F (max concentration tested 10000 nM)")
"46.8%"
>>> assayresult("CC[C@@H]1C(=O)N(C)c2cnc(Nc3ccc(C(=O)NC4CCN(C)CC4)cc3OC)nc2N1C1CCCC1 [BI 2536] (max concentration tested 1000 nM)")
"52.9%"
>>> assayresult("O=C(/C=C/c1cccc(S(=O)(=O)Nc2ccccc2)c1)NO [Belinostat] (max concentration tested 10000 nM)")
"94.6%"

Input line: Looking for the measured percent inhibition of viability of CS(=O)(=O)c1ccc(-c2cnc(N)c(C(=O)Nc3ccccc3)n2)cc1 [VE-821] (max concentration tested 10000 nM) , can you help?
Output line: 43.5%

Input line: percent inhibition of viability for CNC(=O)c1cc(Oc2ccc(NC(=O)Nc3ccc(Cl)c(C(F)(F)F)c3)c(F)c2)ccn1 [Regorafenib] (max concentration tested 10000 nM) ?
Output line: -2.83%

Input line: For COc1cccc2c1C(=O)c1c(O)c3c(c(O)c1C2=O)C[C@@](O)(C(=O)CO)C[C@@H]3O[C@H]1C[C@H](N)[C@H](O)[C@H](C)O1 [Doxorubicin] (max concentration tested 1000 nM) , what is its reported percent inhibition of viability?
Output line: 89.1%

Input line: Report percent inhibition of viability for O=C(Nc1cccc(Nc2ncc(Br)c(NCCc3cnc[nH]3)n2)c1)N1CCCC1 [BX-912] (max concentration tested 10000 nM) please.
Output line: 62.1%

Input line: Quick one: percent inhibition of viability of Cc1ccccc1C(C(=O)NC1CCCCC1)N(C(=O)Cn1ccnc1C)c1cccc(F)c1 (centres undefined) [AGI-5198] (max concentration tested 10000 nM) ?
Output line: -7.93%

Input line: # input compound: Cn1cc(-c2ccc3nnc(C(F)(F)c4ccc5ncccc5c4)n3n2)cn1 (max concentration tested 10000 nM) ; wanted: its percent inhibition of viability
Output line: 1.51%

Input line: Recorded percent inhibition of viability of CC(C)(C)c1cc(NC(=O)Nc2ccc(-c3cn4c(n3)sc3cc(OCCN5CCOCC5)ccc34)cc2)no1 [Quizartinib] (max concentration tested 1000 nM) , please.
Output line: 68.6%

Input line: Entry under review: O=C1CN2Cc3c(ccc(Cl)c3Cl)N=C2N1 [Anagrelide] (max concentration tested 10000 nM) . Reported percent inhibition of viability?
Output line: 7.81%

Input line: // percent inhibition of viability lookup, key: Nc1ncn([C@H]2C[C@H](O)[C@@H](CO)O2)c(=O)n1 [Decitabine] (max concentration tested 10000 nM)
Output line: 58.8%

###

# Test system: DERL-7 (IL-2 2.5 ng/mL)
# experimentNotes: percent inhibition of viability; higher = more inhibition
# assaySetup: 72 h; 10 nM
Reported values of percent inhibition of viability for individual entries
Provide only the numeric value, understood in %.

>>> assayresult("Cc1ccc(F)c(NC(=O)Nc2ccc(-c3cccc4[nH]nc(N)c34)cc2)c1 [Linifanib] (max concentration tested 1000 nM)")
3.09
>>> assayresult("CNC(=O)c1ccc(N2C(=S)N(c3cnc(C#N)c(C(F)(F)F)c3)C(=O)C23CCC3)cc1F [ARN 509] (max concentration tested 10000 nM)")
-1.09

Input line: Data request, read-out percent inhibition of viability, for Nc1nc(F)nc2c1ncn2[C@@H]1O[C@H](CO)[C@@H](O)[C@@H]1O [Fludarabine] (max concentration tested 10000 nM)
Output line: -6.69

Input line: Reported percent inhibition of viability for CC(=O)O[C@H]1C(=O)[C@@]2(C)[C@H]([C@H](OC(=O)c3ccccc3)[C@]3(O)C[C@H](OC(=O)[C@H](O)[C@@H](NC(=O)c4ccccc4)c4ccccc4)C(C)=C1C3(C)C)[C@]1(OC(C)=O)CO[C@@H]1C[C@@H]2O [Paclitaxel] (max concentration tested 1000 nM) : what is it?
Output line: 99.4

Input line: // query percent inhibition of viability value for entry Clc1ccc(C(c2ccccc2Cl)C(Cl)Cl)cc1 (stereo unspecified) [Mitotane] (max concentration tested 10000 nM)
Output line: -2.6

Input line: // returns reported percent inhibition of viability for input Nc1nccc(-c2c(-c3ccc(F)cc3)ncn2C2CCCCC2)n1 (max concentration tested 10000 nM)
Output line: -1.12

Input line: percent inhibition of viability lookup needed for O=c1[nH]cc(F)c(=O)[nH]1 [Fluorouracil] (max concentration tested 10000 nM) , thanks.
Output line: -2.2

Input line: For the compound CO[C@H]1C[C@@H]2CC[C@@H](C)[C@@](O)(O2)C(=O)C(=O)N2CCCC[C@H]2C(=O)O[C@H]([C@H](C)C[C@@H]2CC[C@@H](OP(C)(C)=O)[C@H](OC)C2)CC(=O)[C@H](C)/C=C(\C)[C@@H](O)[C@@H](OC)C(=O)[C@H](C)C[C@H](C)/C=C/C=C/C=C/1C [Ridaforolimus] (max concentration tested 100 nM) , what percent inhibition of viability is on record?
Output line: 51.2

Input line: Request the reported percent inhibition of viability associated with CNC(=O)c1ccc(N2C(=S)N(c3ccc(C#N)c(C(F)(F)F)c3)C(=O)C23CCC3)cc1F [RD162] (max concentration tested 10000 nM)
Output line: -3.32

Input line: Sample Nc1nc(Cl)nc2c1ncn2[C@H]1C[C@H](O)[C@@H](CO)O1 [Cladribine] (max concentration tested 1000 nM) — what was its percent inhibition of viability?
Output line: 2.44

Input line: Value lookup for percent inhibition of viability; key = CC[C@@H]1C(=O)N(C)c2cnc(Nc3ccc(C(=O)NC4CCN(C)CC4)cc3OC)nc2N1C1CCCC1 [BI 2536] (max concentration tested 1000 nM)
Output line: 56.8

###

Each entry below carries its recorded percent inhibition of viability.
# Tested on: normal primary NK cells, pool 2 (3 donors) (IL-2 2.5 ng/mL)
# experimentNotes: percent inhibition of viability; higher = more inhibition
# assaySetup: 72 h; 1 nM
Write the number in % without appending the unit.

Input line: Which measured percent inhibition of viability value corresponds to CN1CCN(c2ccc3nc(-c4c(N)c5c(F)cccc5[nH]c4=O)[nH]c3c2)CC1 [Dovitinib] (max concentration tested 10000 nM) ?
Output line: -7.55

Input line: Item under review: O=C(Cc1ccc(-c2ccc(OCCN3CCOCC3)cc2)cn1)NCc1ccccc1 [KX2-391] (max concentration tested 10000 nM) . Reported percent inhibition of viability?
Output line: -6.2

Input line: What measured percent inhibition of viability goes with COC1=CC(c2cc3ccccc3[nH]2)=N/C1=C\c1[nH]c(C)cc1C [Obatoclax] (max concentration tested 10000 nM) ?
Output line: -4.7

Input line: For Cc1ccc(-c2cc(C(F)(F)F)nn2-c2ccc(S(N)(=O)=O)cc2)cc1 [Celecoxib] (max concentration tested 10000 nM) , what is its reported percent inhibition of viability?
Output line: -5.46

Input line: Given C=CCNC1=C2C[C@@H](C)C[C@H](OC)[C@H](O)[C@@H](C)/C=C(\C)[C@H](OC(N)=O)[C@@H](OC)/C=C\C=C(/C)C(=O)NC(=CC1=O)C2=O [Tanespimycin] (max concentration tested 10000 nM) , state its recorded percent inhibition of viability.
Output line: -2.56

Input line: Which percent inhibition of viability is listed for Nc1nc(Cl)nc2c1ncn2[C@H]1C[C@H](O)[C@@H](CO)O1 [Cladribine] (max concentration tested 1000 nM) ?
Output line: -12.7

Input line: Query: percent inhibition of viability; subject: CC[C@H](Nc1ncnc2[nH]cnc12)c1nc2cccc(F)c2c(=O)n1-c1ccccc1 [Idelalisib] (max concentration tested 10000 nM)
Output line: -10.8

Input line: // lookup percent inhibition of viability for C[C@@H](Oc1cc(-n2cnc3ccc(CN4CCN(C)CC4)cc32)sc1C(N)=O)c1ccccc1C(F)(F)F (max concentration tested 10000 nM)
Output line: -4.17

Input line: Please give the measured percent inhibition of viability for this molecule: CO[C@H]1C[C@@H]2CC[C@@H](C)[C@@](O)(O2)C(=O)C(=O)N2CCCC[C@H]2C(=O)O[C@H]([C@H](C)C[C@@H]2CC[C@@H](OP(C)(C)=O)[C@H](OC)C2)CC(=O)[C@H](C)/C=C(\C)[C@@H](O)[C@@H](OC)C(=O)[C@H](C)C[C@H](C)/C=C/C=C/C=C/1C [Ridaforolimus] (max concentration tested 100 nM)
Output line: 9.36
